Target: T1, GARS, endogenous in H929 multiple myeloma cells (human, UniProt P41250 37-739, limits assumed)
T1 construct: Native protein pulled down from H929 lysates; also called Glycyl-tRNA synthetase; GlyRS
T1 sequence: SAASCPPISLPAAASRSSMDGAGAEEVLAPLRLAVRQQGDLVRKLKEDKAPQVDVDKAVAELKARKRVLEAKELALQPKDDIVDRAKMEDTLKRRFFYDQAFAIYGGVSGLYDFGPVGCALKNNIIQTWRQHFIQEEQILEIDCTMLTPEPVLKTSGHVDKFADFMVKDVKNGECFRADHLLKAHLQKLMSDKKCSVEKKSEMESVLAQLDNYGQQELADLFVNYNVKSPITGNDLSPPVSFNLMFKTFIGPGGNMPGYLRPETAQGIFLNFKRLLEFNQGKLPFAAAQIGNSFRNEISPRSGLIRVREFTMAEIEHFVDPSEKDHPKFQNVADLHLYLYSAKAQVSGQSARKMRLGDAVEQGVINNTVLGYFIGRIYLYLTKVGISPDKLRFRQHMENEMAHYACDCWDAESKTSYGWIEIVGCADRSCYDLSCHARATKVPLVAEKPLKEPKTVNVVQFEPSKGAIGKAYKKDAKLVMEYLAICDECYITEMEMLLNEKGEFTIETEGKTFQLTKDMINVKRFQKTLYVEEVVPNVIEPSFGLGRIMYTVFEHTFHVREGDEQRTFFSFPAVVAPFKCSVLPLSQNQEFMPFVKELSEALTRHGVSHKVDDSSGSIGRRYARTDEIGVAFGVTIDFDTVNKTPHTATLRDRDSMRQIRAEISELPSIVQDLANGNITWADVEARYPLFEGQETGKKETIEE
Assay: flow cytometry, H929 + PTPRG siRNA; None 2.13; surface target GARS putative
Cells stained (%) values by entry

// HW-45 chimeric rabbit-human IgG1 LA/LA/PG (antibody, V domains shown, Fc-silenced (L234A/L235A/P329G) IgG1, lambda; Alexa Fluor 647-labeled in single-step flow cytometry; Prototype of cluster C-45) VH: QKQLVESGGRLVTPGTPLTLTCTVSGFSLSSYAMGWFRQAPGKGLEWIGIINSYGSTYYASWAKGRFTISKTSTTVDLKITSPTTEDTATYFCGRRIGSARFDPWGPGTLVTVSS VL: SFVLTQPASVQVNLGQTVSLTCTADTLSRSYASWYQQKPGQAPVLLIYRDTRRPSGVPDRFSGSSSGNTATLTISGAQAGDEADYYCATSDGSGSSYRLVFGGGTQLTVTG : Cells stained (%) value = 97.3%

// HW-56 chimeric rabbit-human IgG1 LA/LA/PG (antibody, V domains shown, Fc-silenced (L234A/L235A/P329G) IgG1, kappa; Alexa Fluor 647-labeled in single-step flow cytometry; Cluster C-45) VH: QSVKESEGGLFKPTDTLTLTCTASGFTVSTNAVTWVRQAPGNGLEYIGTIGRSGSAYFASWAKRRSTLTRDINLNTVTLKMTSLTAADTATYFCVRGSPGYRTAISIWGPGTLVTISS VL: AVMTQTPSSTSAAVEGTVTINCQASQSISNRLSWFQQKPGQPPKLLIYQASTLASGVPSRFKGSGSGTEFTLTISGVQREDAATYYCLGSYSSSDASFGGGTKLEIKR : Cells stained (%) value = 99.8%

Attention now turns to another entry.
// HW-8 chimeric rabbit-human IgG1 LA/LA/PG (antibody, V domains shown, Fc-silenced (L234A/L235A/P329G) IgG1, kappa; Alexa Fluor 647-labeled in single-step flow cytometry; Cluster C-45) VH: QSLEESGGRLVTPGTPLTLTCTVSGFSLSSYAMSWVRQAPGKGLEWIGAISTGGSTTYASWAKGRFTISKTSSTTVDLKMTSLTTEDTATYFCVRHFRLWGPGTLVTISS VL: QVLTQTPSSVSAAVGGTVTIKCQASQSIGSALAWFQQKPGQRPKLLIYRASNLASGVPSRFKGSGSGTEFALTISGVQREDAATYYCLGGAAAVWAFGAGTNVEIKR : Cells stained (%) value = 84.3%
